Test system: RPMI8226 cell
Assay: MTT proliferation inhibition, RPMI8226
Settings: Homo sapiens, RPMI-8226, 72 h, read-out: Cytotoxicity IC50 (nM) RPMI8226 cell
Quick reference for IC50 among some compounds
Write the value in nM as a bare number.

CC(C)C[C@H](NC(=O)[C@H](CCc1ccccc1)NC(=O)CN1CCOCC1)C(=O)N[C@@H](Cc1ccccc1)C(=O)N[C@@H](CC(C)C)C(=O)[C@@]1(C)CO1 [Carfilzomib, reference compound]    3

Now let's try a different one.
Tell me the measured IC50 of `CC(C)C[C@H](NC(=O)[C@H](Cc1ccccc1)NC(=O)c1cnccn1)B(O)O` , please. 1.8

Where these numbers come from: patent US9856288B2
